measurement_target: HDM2 (Homo sapiens)
Construct: Thioredoxin (N); made in house; host or cells: E. coli strain BL21(DE3)Rosetta
assay_info: FRET assay (HDM2 inhibition; method not described in this part)
Assay type: binding
settings: Table 1
Classes by IC50: range 1 (below 10 nM), range 2 (10 nM to below 30 nM), range 3 (30 nM or more)

Consider the worked cases shown below.
In [3]: df
Out[3]:
                            compound_string  assigned_label
0  C[C@@H](Nc1nc(C(=O)O)nc2nc(-c3cc(-c4ccccc4)ccn3)n(Cc3ccc(C(F)(F)F)cc3)c12)C1CCC1         range 2
1  C[C@@H](Nc1nc(C(=O)O)nc2nc(-c3ccc4c(ccn4C)c3)n(Cc3ccc(C(F)(F)F)cc3)c12)C1CCC1         range 3
2  C[C@@H](Nc1nc(C(=O)O)nc2nc(-c3ccc4occc4c3)n(Cc3ccc(C(F)(F)F)cc3)c12)C1CCC1         range 2

Looking at COc1ccc(-c2nc3nc(C(=O)O)nc(N[C@H](C)C4CCC4)c3n2Cc2ccc(C(F)(F)F)cc2)cc1F , which class would you pick?
range 2

Please do the same for COc1ccc(C(C)C)cc1-c1nc2nc(C(=O)O)nc(N[C@H](C)C3CCC3)c2n1Cc1ccc(C(F)(F)F)cc1 as well.
range 2

Please do the same for C[C@@H](Nc1nc(C(=O)O)nc2nc(-c3cc(C(C)(C)C)ccn3)n(Cc3ccc(C(F)(F)F)cc3)c12)C1CCC1 as well.
range 1

Please do the same for C[C@@H](Nc1nc(C(=O)O)nc2nc(-c3ccc4c(c3)CCO4)n(Cc3ccc(C(F)(F)F)cc3)c12)C1CCC1 as well.
range 1

Please do the same for C[C@@H](Nc1nc(C(=O)O)nc2nc(-c3ccccn3)n(Cc3ccc(C(F)(F)F)cc3)c12)C1CCC1 as well.
range 2

Please do the same for Cc1ccc(F)cc1-c1nc2nc(C(=O)O)nc(N[C@H](C)C3CCC3)c2n1Cc1ccc(C(F)(F)F)cc1 as well.
range 2

Please do the same for C[C@@H](Nc1nc(C(=O)O)nc2nc(-c3ccc(C(C)(C)C)cc3)n(Cc3ccc(C(F)(F)F)cc3)c12)C1CCC1 as well.
range 3

Please do the same for C[C@@H](Nc1nc(C(=O)O)nc2nc(-c3cc(C(C)(C)C)ccn3)n(Cc3ccc(C(F)(F)F)c(F)c3)c12)C1CCC1 as well.
range 1

Please do the same for CC(C)c1cc(-c2nc3nc(C(=O)O)nc(N[C@H](C)C4CCC4)c3n2Cc2ccc(C(F)(F)F)cc2)ccn1 as well.
range 3

Please do the same for Cc1ccn(-c2ccnc(-c3nc4nc(C(=O)O)nc(N[C@H](C)C5CCC5)c4n3Cc3ccc(C(F)(F)F)cc3)c2)n1 as well.
range 3

* * *

# Lookup of reported IC50 keyed by entry
measurement_target: HDM2 (Homo sapiens, UniProt Q00987)
Construct: Thioredoxin (N); made in house; host or cells: E. coli strain BL21(DE3)Rosetta
Sequence (Q00987 17-125): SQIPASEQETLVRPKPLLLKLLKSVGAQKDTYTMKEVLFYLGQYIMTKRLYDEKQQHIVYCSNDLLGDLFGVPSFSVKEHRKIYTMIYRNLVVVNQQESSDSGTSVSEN
assay_info: FRET assay (HDM2 inhibition; method not described in this part)
Format: binding
settings: Table 2
Report only the number, with the unit nM understood.

Use these answered entries as a reference point.
                            compound_string  readout_name  value_unit  value_measured
0  C[C@@H](Nc1nc(C(=O)O)nc2nc(-c3ccc4sccc4c3)n(Cc3ccc(Cl)cc3)c12)C1CC1          IC50          nM             259
1  C[C@@H](Nc1nc(C(=O)O)nc2nc(-c3cccc(C(F)(F)F)c3)n(Cc3ccc(C(F)(F)F)cc3)c12)C1CCC1          IC50          nM            11.2

Continue with the next molecule.
For the molecule C[C@@H](Nc1nc(C(=O)O)nc2nc(-c3cccnc3)n(Cc3ccc(C(F)(F)F)cc3)c12)C1CC1 , what IC50 is on record?
640
